assay remarks: NCI Yeast Anticancer Drug Screen. Data for the bub3 strain (AID 167)
run parameters: S. cerevisiae bub3 mutant strain, at 33.0 µM, stronger effect = higher value
Compounds without any hit were thinned out: in the full panel of roughly 79,000, 15% have a hit. Calls of active or inactive are those of the source. Cut-off read from the data, not from the text of the source: active = growth inhibition above about 70%; inactive = the rest.
Known growth inhibition of a selection of molecules
value kind: growth inhibition

molecule	readout value
CCC/C(Cl)=N\OC(=O)Nc1ccc(Br)cc1	94% (active)
Cc1c(C(Cc2ccccc2N(C)C(=O)/C=C\C(=O)O)c2c[nH]c3ccccc23)c2ccccc2n1C (stereo not given)	6% (inactive)
C=C1CC(Cn2cc(Br)c(=O)[nH]c2=O)(c2ccc(-c3ccccc3)cc2)OC1=O (stereo not given)	53% (inactive)
Cc1c(C(=O)C(=O)c2ccccc2)c(C)c(C(=O)C(=O)c2ccccc2)c(C)c1C(=O)C(=O)c1ccccc1	-8% (inactive)
CC1(Cl)CC(O)C2(CC1Br)C1(C)OC1C1OC1(Br)C2(C)C (stereo not given)	35% (inactive)
CC(C)c1cc(C(C)C)c(O)c(C([O-])[O-])c1.CC(C)c1cc(C(C)C)c(O)c(C([O-])[O-])c1.CC(C)c1cc(C(C)C)c(O)c(C([OH2+])[OH2+])c1.CC(C)c1cc(C(C)C)c(O)c(C([OH2+])[OH2+])c1.[Cu+2].[Cu+2].[OH3+].[OH3+]	47% (inactive)
CC(=O)Nc1ccc(/C=C(\C#N)c2ccc(C)cc2)cc1	7% (inactive)
CCN(CC)CC(O)c1ccc2ccc3ccccc3c2c1 (stereo not given)	43% (inactive)
C[C@@H]1C[C@H]2[C@@H]3CCC4=CC(=O)C=C[C@]4(C)[C@@]3(Cl)[C@@H](Cl)C[C@]2(C)[C@@]1(O)C(=O)COP(=O)(O)O	0% (inactive)
O=C(CCCN1CCC(O)(c2ccc(Cl)cc2)CC1)c1ccc(F)cc1	51% (inactive)
c1ccc(-c2ccnc3c2ccc2c(-c4ccccc4)ccnc23)cc1	98% (active)
CCCCCCCCCCC1CCC(=O)O1 (stereo not given)	0% (inactive)
S=c1[nH]nc(Nc2ccc(Cl)cc2)s1	-10% (inactive)
N#CN1C2CCC1CC(=O)C2	27% (inactive)
CCCCCCCCCCCCCCC(C(=O)[O-])[n+]1ccccc1 (stereo not given)	-8% (inactive)
O=Nc1cccnc1N=O	98% (active)
COc1ccc(/C=C2\SC(=S)N(/C=C/c3nc4ccccc4[nH]c3=O)C2=O)cc1OC	52% (inactive)
CC(C)C1=CCC2C(=C1)CCC1C(C)(C(=O)O)CCCC21C (stereo not given) (tested in a mixture with another compound)	17% (inactive)
COc1ccccc1/C=C1\Sc2scc(-c3cccc([N+](=O)[O-])c3)[n+]2C1=O	95% (active)
Cc1cccc2c(C(O)CBr)cc(-c3ccc(Cl)cc3)nc12 (stereo not given)	96% (active)
CC1(C)C(=O)OC(n2cc(F)c(=O)[nH]c2=O)C1=O (stereo not given)	37% (inactive)
CCCCCCCCCCCCCCCCCCNC	20% (inactive)
O=S(=O)(CCCl)c1ccccc1Cl	94% (active)
COc1ccccc1C(=O)OCC1CCCN2CCCCC12 (stereo not given)	97% (active)
CN(C)Cc1cc(N=Nc2ccc(Cl)cc2)cc(CN(C)C)c1O	5% (inactive)
CCOP(=O)(OCC)C(Cc1ccccc1)N=C(c1ccccc1)c1ccccc1 (stereo not given)	88% (active)
O=[N+]([O-])c1cc2no[n+]([O-])c2cc1N1CCCCC1	96% (active)
S=C(N/N=C/c1ccccn1)Nc1ccc(Cl)cc1	-3% (inactive)
N#C/C(=C\c1cccc(OCc2ccccc2)c1)c1ccc([N+](=O)[O-])cc1	-40% (inactive)
CSC(=S)Nc1cc(C)ccn1	30% (inactive)
C(CCSC1=NCCN1)CSC1=NCCN1 (tested in a mixture with another compound)	99% (active)
CCC(C)COC(=O)c1ccc(N=Cc2ccc(C=Nc3ccc(C(=O)OCC(C)CC)cc3)cc2)cc1 (stereo not given)	10% (inactive)
CN(Cc1cnc2nc(N)nc(N)c2n1)c1ccc(C(=O)N[C@@H](CCC(=O)O)C(=O)O)cc1	-4% (inactive)
Cc1ccc(S(=O)(=O)NCCSS(=O)(=O)c2ccc(C)cc2)cc1	98% (active)
CCN(CC)[P+](c1ccccc1O)(N(CC)CC)N(CC)CC	60% (inactive)
